Listing of entries alongside the reported protein stability index.
- protocol-summary: protein stability index of a GFP-peptide fusion (GPS, HEK-293T) (PSI 1-6); higher = more stable;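 note: 24-mer peptide tiles fused after GFP, lentivirally expressed, FACS-sorted into six equal bins by GFP/DsRed ratio, decoded by Illumina sequencing, PSI is the read-weighted mean bin number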
- condition-set: treatment: MLN4924 1 uM, 8 h; c terminus: a fixed tail appended
The answer should be written as a number, with no unit following it.

residues: CFRSLAASSPSIRQKKLMHKLQEE [CCDC70]
protein stability index: 3.33
//
residues: SGNGDFGDWSAFNQAPSGPVASSG [CLINT1]
protein stability index: 4.38
//
residues: LVEAGAHTDMTNKQNKTPLDKSTT [FEM1B]
protein stability index: 5.27
//
residues: EREKVTPLMVKGFRDAAEEGGTAV [SEPHS2]
protein stability index: 5.12

Which protein stability index reading was recorded for the sequence EQLSGAGYRVSAALEEADKMFLRT [EID1] ? 4.1

What do you have for DENYNLLPHGVNFQDAIFPDTQEN [CCDC3] ? 5.06

What do you have for YQKILAGKIDFPRHLDFHVKDLIK [PRKX] ? 2.1

What do you have for GHWTNVTPMATKRSGAGVALLNDH [KLHL12] ? 3.62

What do you have for MKDRLAELLDLSKQYDQQFPDGDD [STX11] ? 4.89

What do you have for GRLYVHPDSPATGAHWMRQLVSFQ [TBX5] ? 2.34

What do you have for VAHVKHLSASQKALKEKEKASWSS [COX4I1] ? 3.83

What do you have for LQFLYTGQLDEKEKDLVGLAQIAE [RHOBTB1] ? 2.83

What do you have for AKVPRPPSTLLPTPEEQGELEPLK [FOXJ1] ? 5.3

What do you have for FVQVKGNFARLQTCISELRMLQRE [M1AP] ? 2.11

* * *

- protocol-summary: protein stability index of a GFP-peptide fusion (GPS, HEK-293T) (PSI 1-6); higher = more stable
- condition-set: treatment: MLN4924 1 uM, 8 h; c terminus: a fixed tail appended
measured-property: protein stability index
The answer should be written as a number, with no unit following it.

Below: 8 sequences and their reported protein stability index.
residues: LVARFLEQSSCTMTPDIHELVENI [FAM189A2]
measured-property: protein stability index
reading: 2.37

residues: CCIDWTHVTDPLIGCKKPVSASGK [SMG5]
measured-property: protein stability index
reading: 3.09

residues: SLALVQNGDVSAPSAILRTPESTK [ANKRD40]
measured-property: protein stability index
reading: 4.06

residues: KLLNRCCHLFSTYVASHKIEKEEQ [ACBD3]
measured-property: protein stability index
reading: 2.23

residues: NYYEVGSNRGAYVKLGPALTPHIV [PPEF2]
measured-property: protein stability index
reading: 2.55

residues: GIFQAMCLLICAEMYQVSRLQHIC [RHOBTB3]
measured-property: protein stability index
reading: 3.09

residues: FGHLINGAIAVFVYASDKEWIRFD [PTGFR]
measured-property: protein stability index
reading: 3.1

residues: DMFDADGGGDISVKELGTVMRMLG [TNNC2]
measured-property: protein stability index
reading: 2.58

Which protein stability index reading was recorded for the sequence LEDKLRLLAQARDEAQGACLQQKQ [LRRC45] ? 4.19

What do you have for NGLALGPDLNILEDSAESRPWRAG [PSD2] ? 4.24

What do you have for CEKRCSYCNFNKYIPRRLEEAAMQ [RSAD1] ? 2.6

What do you have for LPYLEHVGHNHTYNMAPSALDSAD [NFE2L1] ? 4.44

What do you have for IVVHCSAGIGRTGTFCSLDICLAQ [PTPN9] ? 3.45
